B1: Azoarcus group I ribozyme (parent)
chain: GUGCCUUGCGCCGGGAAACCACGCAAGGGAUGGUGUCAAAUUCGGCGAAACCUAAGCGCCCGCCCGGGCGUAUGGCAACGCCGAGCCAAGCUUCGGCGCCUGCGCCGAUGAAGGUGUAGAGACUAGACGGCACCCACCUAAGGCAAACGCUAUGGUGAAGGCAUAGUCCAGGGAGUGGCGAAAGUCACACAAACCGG

Variants of: B1
Assay: reverse-splicing fitness (ratio to wild type); higher = more active; in vitro selection; Mg2+ level not given

variant_spec	reverse-splicing fitness
C82U A111C A145G U176A	0.0861
C82G C169G U176G	0.00418
C82G A111G A120U C150U U176A	0.0115
A120U C150U C169A	0.0111
C82A A120C A145C C150U C169U	0.0118
A111U A120C A145U C150G C169U U176G	0.00475
C82G A111U A120C A145G C169U U176C	0.0156
A120G A145G C169G U176C	0.268
C82A A111U A120C A145G C150G C169G U176A	0.0112
C82A A120C A145C C150U C169G	0.00856
A120G A145C C150U C169A U176A	0.0422
C82G A111U A120G C169G U176G	0.00448
A120G C150U C169G U176G	0.00753
A111C A120G C150A C169A U176A	0.0174
C82U A111C A120C A145G C150U C169U U176G	0.00546
C82U A120C A145U C150G	0.0217
C82U A120G A145C C150U C169U U176C	0.00975
C82A A111C A120G A145C C150G C169G U176G	0.00475
C82U A120C C150U C169A U176G	0.00426
C82G A145C C150U C169A	0.00797
C82G A111U A120U A145C C169U U176G	0.00178
C82A A145G C150A C169A U176G	0.00695
C82A A111G A120U A145C C169G	0.00315
C82G A111C A120U C169A U176C	0.00457
C82U A111C A145C C169A U176A	0.0127
C82G A120C A145G C150U C169G U176A	0.0139
A111G C150G C169G U176A	0.00723
C82G A111C A145C C150A C169U	0.00955
A111U C150U C169G U176A	0.0177
A111G A120U A145C C150A C169U U176A	0.00311
C82A A111U A120U A145G C150G C169A U176G	0.00618
C82G A111G A145G C150G C169U U176A	0.012
C82G A111U A120U A145C C150A C169G	0.00272
C82A A111G A120G A145G C150U	0.0145
C82A A111U A120U C150A C169G U176A	0.00956
C82A A111C A120U A145C C150G C169A	0.00359
C82G A111G A120U C150G C169U	0.0064
C82A A120U C150G C169G U176G	0.00232
C82G A120C C169G U176A	0.0172
C82G A120U C150A C169U U176A	0.00396
C82A A120G A145G C150G C169A	0.01
C82G A111G A120U A145U C150G C169A U176C	0.00298
C82U A111G A120G A145C C169G	0.0123
A111G C150A C169A U176A	0.0171
A111C A120U A145U C150U C169U U176C	0.0142
C82A A120U A145C C150U C169G U176G	0.00196
C82A A111C A120U A145G C150A C169A U176A	0.00894
A111C A120U A145C C150A U176A	0.016
C82A A111U A120C A145C C150U C169G U176C	0.0353
C82U A111G A120C A145U C150U C169U U176A	0.0157
C82U A111G A120C A145G C150A C169A U176G	0.00589
A111U A120G A145C C150G C169U	0.0237
A111U A145U C150A C169G U176C	0.0169
C82G A111C A120U A145G C150U C169G	0.00657
C82U A111C C150A C169U	0.0106
C82G A111G A120U A145U C150A C169G U176G	0.00181
A145U C150A C169A U176C	0.0139
C82U A111G A120G A145U C150G U176A	0.00535
C82G A111U A120G A145G C150G C169A	0.00911
C82U A120U A145C C150A U176G	0.00282
A111C A120G A145G C169U U176C	0.045
C82G A111C A145U C169U U176A	0.0168
C82U A111U A120C A145G C150U C169A U176A	0.017
C82G A111U A120U A145G C150A C169A	0.00617
A120U A145G C150U C169G U176G	0.00281
C82G A120U A145C U176A	0.0712
A111C A120C A145U C150G C169U U176A	0.00997
A111U A145G C150U C169U U176C	0.0314
C82U A120G C150G C169G	0.0077
C82A A111C A120G A145C C150A U176A	0.0103
C82A A120U A145C C150A U176A	0.00439
A111U A145U C150G C169A U176C	0.0101
C82U A111U A120U C150G C169A U176C	0.00404
C82U A120G A145G C150G U176C	0.00995
C82G A120U C150G	0.0146
A111G A145C	0.876
A111G A120C A145G	0.688
A111G A120G A145U C150G C169G U176A	0.00768
C82A A120U A145U C150U C169U U176G	0.00221
A111G A120C C150G C169G U176A	0.00631
C82U A111G A120U A145G C150U C169U U176G	0.00238
C82U A111C A120G A145G C169G U176G	0.00408
A111G A120G A145G C150U C169U U176G	0.00628
C82A A120G A145G C150A C169G U176A	0.018
C82U A111C A145U C150A C169G U176A	0.0138
C82U A120U A145G C150A	0.0257
C82U A120C A145G C150A U176A	0.0152
C82A A111G A145G C150U C169G U176C	0.0198
C82G A111G A120U C150U C169U U176A	0.00523
C82G A111U A120G A145U C169G	0.0137
C82U A111U A145U C169U U176G	0.00446
